- target: MTHFD1 recombinant human enzyme (Homo sapiens, UniProt P11586)
- Sequence (P11586 2-291 limits assumed): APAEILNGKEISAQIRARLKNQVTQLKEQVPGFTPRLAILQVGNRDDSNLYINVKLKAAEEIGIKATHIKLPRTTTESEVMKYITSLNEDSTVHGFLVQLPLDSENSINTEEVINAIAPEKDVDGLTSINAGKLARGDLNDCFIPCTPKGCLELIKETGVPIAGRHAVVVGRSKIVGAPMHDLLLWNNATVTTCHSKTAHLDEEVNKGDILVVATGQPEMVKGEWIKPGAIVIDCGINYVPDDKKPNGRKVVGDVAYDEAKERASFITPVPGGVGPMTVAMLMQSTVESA
- assay-comment: MTHFD1 inhibition assay (NAD(P)H-Glo luminescence)
- condition: MTHFD1 IC50, recombinant human enzyme 200 nM, NADP, band
observation-type: IC50

Consider the following illustrative entries.
COC[C@H]1CN(c2ccc3c4c(c(=O)oc3c2Cl)CN(C(=O)c2ccc(C(=O)NS(=O)(=O)N(C)C(C)C)c(O[C@@H]3C[C@@H]5C[C@@H]5C3)c2F)CC4)CCN1C ... 1 to 10 nM
CCOc1c(C(=O)NS(=O)(=O)N2CC3CC3C2)ccc(C(=O)N2CCc3c(c(=O)oc4c(C)c(N5CCN(C)[C@@H](COC)C5)cc(C)c34)C2)c1F (some centres unmarked) ... 10 to 100 nM
COC[C@H]1CN(c2ccc3c4c(c(=O)oc3c2C)CN(C(=O)c2ccc(C(=O)NS(=O)(=O)C3(C)CC3)c(OC3CCC3)c2)CC4)CCN1C ... 10 to 100 nM
COC[C@H]1CN(c2cc(Cl)c3c4c(c(=O)oc3c2C)CN(C(=O)c2cc(N(C)C)c(C(=O)NS(=O)(=O)N3CC[C@H](F)C3)cc2F)CC4)CCN1C ... 100 to 1000 nM

Problem: Field request: IC50 | item: "COC[C@H]1CN(c2cc(C)c3c4c(c(=O)oc3c2C)CN(C(=O)c2ccc(C(=O)NS(=O)(=O)C3(C)CC3)c(N3CCCC3)c2)CC4)CCN1C"
Result: 10 to 100 nM

* * *

# key: entry, value: pIC50
- target: MTHFD2 recombinant human enzyme (Homo sapiens)
- Sequence (P13995 36-350): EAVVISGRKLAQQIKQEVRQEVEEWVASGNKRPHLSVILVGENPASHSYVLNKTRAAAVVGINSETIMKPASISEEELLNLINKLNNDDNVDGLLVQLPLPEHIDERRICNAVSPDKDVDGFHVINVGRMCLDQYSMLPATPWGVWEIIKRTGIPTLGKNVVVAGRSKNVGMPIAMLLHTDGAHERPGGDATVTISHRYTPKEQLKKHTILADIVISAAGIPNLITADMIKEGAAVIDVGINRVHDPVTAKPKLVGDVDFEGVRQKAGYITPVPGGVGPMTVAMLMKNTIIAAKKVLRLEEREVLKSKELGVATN
- assay-comment: MTHFD2 inhibition assay (NAD(P)H-Glo luminescence)
pIC50: −log10 of the molar value.

Consider the following illustrative entries.
COC[C@H]1CN(c2cc(C)c3c4c(c(=O)oc3c2C)CN(C(=O)c2ccc(C(=O)NS(=O)(=O)N3CCCC3)c(N3CCCC3)c2)CC4)CCN1C [Example 96] ... 8.00 to 9.00
CCOc1c(C(=O)NS(=O)(=O)N2CCCC2)ccc(C(=O)N2CCc3c(c(=O)oc4c(C)c(N5CCN(C)[C@@H](COC)C5)cc(Cl)c34)C2)c1F [Example 258] ... 8.00 to 9.00

Problem: Field request: pIC50 | item: COC[C@H]1CN(c2ccc3c4c(c(=O)oc3c2Cl)CN(C(=O)c2ccc(C(=O)NS(=O)(=O)N(C)C)c(OC3CCC3)c2F)CC4)CCN1C [Example 52]
Result: 8.00 to 9.00

* * *

- target: MTHFD2 recombinant human enzyme (Homo sapiens, UniProt P13995)
- assay-comment: MTHFD2 inhibition assay (NAD(P)H-Glo luminescence)
- condition: selectivity of MTHFD2 inhibition over MTHFD1, band
observation-type: MTHFD1/MTHFD2 IC50 ratio

Consider the following illustrative entries.
COC[C@H]1CN(c2cc(Cl)c3c4c(c(=O)oc3c2C)CN(C(=O)c2cc(N(C)C)c(C(=O)NS(=O)(=O)N3CCC[C@@H]3COC)cc2F)CC4)CCN1C [Example 290] ... J (>30)
COC[C@H]1CN(c2ccc3c4c(c(=O)oc3c2C)CN(C(=O)c2ccc(C(=O)NS(=O)(=O)N(C)C)c(OC3C[C@@H]5C[C@@H]5C3)c2)CC4)CCN1C (mixture of isomers) [Example 113] ... F (<3)
COC[C@H]1CN(c2cc(C)c3c4c(c(=O)oc3c2C)CN(C(=O)c2ccc(C(=O)NS(=O)(=O)N(C)C)c(OC3C[C@@H]5C[C@@H]5C3)c2)CC4)CCN1C (mixture of isomers) [Example 108] ... F (<3)
COC[C@H]1CN(c2cc(C)c3c4c(c(=O)oc3c2C)CN(C(=O)c2cc(N(C)C)c(C(=O)NS(=O)(=O)C3(C)CC3)cc2C(F)(F)F)CC4)CCN1C [Example 159] ... H (>9.0 to 30)
COC[C@H]1CN(c2cc(C)c3c4c(c(=O)oc3c2C)CN(C(=O)c2ccc(C(=O)NS(=O)(=O)N3C5CCC3CC5)c(OC)c2)CC4)CCN1C [Example 226] ... J (>30)

// next item, MTHFD1/MTHFD2 IC50 ratio requested
Problem: # query: MTHFD1/MTHFD2 IC50 ratio | item CCOc1cc(C(=O)N2CCc3c(c(=O)oc4c(C)c(N5CCN(C)[C@@H](COC)C5)cc(C)c34)C2)cc(C(F)(F)F)c1C(=O)NS(=O)(=O)N1CCCC1 [Example 160] | system: MTHFD2 recombinant human enzyme (Homo sapiens, UniProt P13995)
Result: H (>9.0 to 30)

* * *

- target: MTHFD2 recombinant human enzyme (Homo sapiens)
- assay-comment: MTHFD2 inhibition assay (NAD(P)H-Glo luminescence)
- condition: selectivity of MTHFD2 inhibition over MTHFD1, band
observation-type: MTHFD1/MTHFD2 IC50 ratio

Consider the following illustrative entries.
COC[C@H]1CN(c2cc(C)c3c4c(c(=O)oc3c2C)CN(C(=O)c2cc(OC3CCCC3)c(C(=O)NS(=O)(=O)N3CCCC3)cc2F)CC4)CCN1C ... F (<3)
CCOc1c(C(=O)NS(=O)(=O)N2CC3CC3C2)ccc(C(=O)N2CCc3c(c(=O)oc4c(CC)c(N5CCN(C)[C@@H](COC)C5)ccc34)C2)c1F (stereo partly drawn) ... F (<3)
COC[C@H]1CN(c2cc(C)c3c4c(c(=O)oc3c2C)CN(C(=O)c2cc(N(C)C)c(C(=O)NS(=O)(=O)N3CC5CC5C3)cc2F)CC4)CCN1C (stereo partly drawn) ... J (>30)
COC[C@H]1CN(c2cc(Cl)c3c4c(c(=O)oc3c2C)CN(C(=O)c2cc(OC)c(C(=O)NS(=O)(=O)N3CCCC3)cc2F)CC4)CCN1C ... J (>30)

// next item, MTHFD1/MTHFD2 IC50 ratio requested
Problem: Field request: MTHFD1/MTHFD2 IC50 ratio | item: "COC[C@H]1CN(c2cc(C)c3c4c(c(=O)oc3c2C)CN(C(=O)c2ccc(C(=O)NS(=O)(=O)N(C)C(C)C)c(OC3CCCC3)c2F)CC4)CCN1C"
Result: F (<3)

* * *

- target: MTHFD2 recombinant human enzyme (Homo sapiens)
- assay-comment: MTHFD2 inhibition assay (NAD(P)H-Glo luminescence)
pIC50: −log10 of the molar value.
observation-type: pIC50

COC[C@H]1CN(c2cc(C)c3c4c(c(=O)oc3c2C)CN(C(=O)c2cc(OC3CCC3)c(C(=O)NS(=O)(=O)C3(C)CC3)c(C(F)(F)F)c2)CC4)CCN1C ... 7.00 to 8.00
COC[C@H]1CN(c2ccc3c4c(c(=O)oc3c2)CN(C(=O)c2ccc(C(=O)NS(=O)(=O)N3CCCC3)c(OC3CCCC3)c2F)CC4)CCN1C ... 6.00 to 7.00
CCOc1c(C(=O)NS(=O)(=O)N2CCCC2)ccc(C(=O)N2CCc3c(c(=O)oc4c(C)c(N5CCN(C)[C@@H](COC)C5)cc(C)c34)C2)c1F ... 8.00 to 9.00
CCOc1cc(C(=O)N2CCc3c(c(=O)oc4c(C)c(N5CCN(C)[C@@H](COC)C5)cc(C)c34)C2)cc(C(F)(F)F)c1C(=O)NS(=O)(=O)N1CCCC1 ... 6.00 to 7.00
CCOc1c(C(=O)NS(=O)(=O)N2C3CCC2CC3)ccc(C(=O)N2CCc3c(c(=O)oc4c(CC)c(N5CCN(C)[C@@H](COC)C5)ccc34)C2)c1F ... 6.00 to 7.00
COC[C@H]1CN(c2cc(C)c3c4c(c(=O)oc3c2C)CN(C(=O)c2ccc(C(=O)NS(=O)(=O)N3CCCC3)c(N3CCC[C@@H]3C)c2)CC4)CCN1C ... 7.00 to 8.00
COC[C@H]1CN(c2cc(C)c3c4c(c(=O)oc3c2C)CN(C(=O)c2cc(OC3CCC3)c(C(=O)NS(=O)(=O)N(C)C)cc2F)CC4)CCN1C ... 7.00 to 8.00
COC[C@H]1CN(c2cc(C)c3c4c(c(=O)oc3c2C)CN(C(=O)c2ccc(C(=O)NS(=O)(=O)C3(C)CC3)c(N3CCC(F)(F)C3)c2)CC4)CCN1C ... 8.00 to 9.00
COC[C@H]1CN(c2cc(Cl)c3c4c(c(=O)oc3c2C)CN(C(=O)c2ccc(C(=O)NS(=O)(=O)N3CCC[C@@H]3COC)c(OC)c2)CC4)CCN1C ... 7.00 to 8.00
COC[C@H]1CN(c2cc(C)c3c4c(c(=O)oc3c2C)CN(C(=O)c2ccc(C(=O)NS(=O)(=O)N3CCCC3)c(N(C)C3CCC3)c2)CC4)CCN1C ... 7.00 to 8.00

Problem: Field request: pIC50 | item: "COC[C@H]1CN(c2ccc3c4c(c(=O)oc3c2Cl)CN(C(=O)c2ccc(C(=O)NS(=O)(=O)C3(C)CC3)c(O[C@@H]3C[C@@H]5C[C@@H]5C3)c2F)CC4)CCN1C"
Result: 8.00 to 9.00

Problem: Field request: pIC50 | item: "COC[C@H]1CN(c2cc(Cl)c3c4c(c(=O)oc3c2C)CN(C(=O)c2cc(N(C)C)c(C(=O)NS(=O)(=O)N(C3CC3)C3CC3)cc2F)CC4)CCN1C"
Result: 7.00 to 8.00

Problem: Field request: pIC50 | item: COC[C@H]1CN(c2cc(C)c3c4c(c(=O)oc3c2C)CN(C(=O)c2cc(N(C)C)c(C(=O)NS(=O)(=O)N3CC5CC5C3)cc2F)CC4)CCN1C (stereo partly drawn)
Result: 8.00 to 9.00

Problem: Field request: pIC50 | item: "COC[C@H]1CN(c2cc(C)c3c4c(c(=O)oc3c2C)CN(C(=O)c2ccc(C(=O)NS(=O)(=O)N(C)C(C)C)c(OC3CCC3)c2F)CC4)CCN1C"
Result: 8.00 to 9.00

Problem: Field request: pIC50 | item: "COC[C@H]1CN(c2cc(C)c3c4c(c(=O)oc3c2C)CN(C(=O)c2ccc(C(=O)NS(=O)(=O)N3C5CCC3CC5)c(OC)c2F)CC4)CCN1C"
Result: 7.00 to 8.00

Problem: Field request: pIC50 | item: "COC[C@H]1CN(c2cc(C)c3c4c(c(=O)oc3c2C)CN(C(=O)c2ccc(C(=O)NS(=O)(=O)N3C5CCC3COC5)c(OC)c2F)CC4)CCN1C"
Result: 7.00 to 8.00

Problem: Field request: pIC50 | item: "CCOc1cc(C(=O)N2CCc3c(c(=O)oc4c(C)c(N5CCN(C)[C@@H](COC)C5)cc(Cl)c34)C2)c(F)cc1C(=O)NS(=O)(=O)N1C2CCC1CC2"
Result: 7.00 to 8.00

Problem: Field request: pIC50 | item: COC[C@H]1CN(c2cc(C)c3c4c(c(=O)oc3c2C)CN(C(=O)c2cc(F)c(C(=O)NS(=O)(=O)N(C)C)c(N3CC5CC5C3)c2)CC4)CCN1C (stereo partly drawn)
Result: 8.00 to 9.00
